Answer each item with its documented solubility kinetic.
- Stated conditions: buffer; pH 7.4; 200.0 µM

>  <Compound>
NS(=O)(=O)c1cnccc1NCCc1ccccc1

>  <Measured endpoint>
solubility kinetic

>  <Observed measurement>
40.3 µg/mL

$$$$
>  <Compound>
COc1ccccc1N1C(=O)S/C(=C\c2ccc(C)s2)C1=O

>  <Measured endpoint>
solubility kinetic

>  <Observed measurement>
< 0.7 µg/mL

$$$$

Please give solubility kinetic for each item listed below.
1. CC(=O)C1=C(O)C(=O)N(c2ccccn2)C1c1cccc(F)c1 (stereo not given)
2. COc1cccc(NC(=S)Nc2ccc(F)cc2)c1
3. S=C1NCN(Cc2ccccc2)CN1C1CCCCC1
4. COc1ccc2c(C=O)cn(C)c2c1
5. CSc1ccccc1NC(=O)CN1c2ccccc2CC1C (stereo not given)
6. O=C(COC(=O)/C=C/c1cccc([N+](=O)[O-])c1)NCc1ccco1

Reply:
> 46.8 µg/mL
28.7 µg/mL
4.5 µg/mL
> 28.4 µg/mL
11.9 µg/mL
18.5 µg/mL

Source listed as PubChem BioAssay AID1996.
